Test Target: SpnFADS (Streptococcus pneumoniae, UniProt A0A0H2UPY5)
Construct: gene SP_1110; full-length bifunctional enzyme from pET-15b in E. coli BL21 Star (DE3), His6-tag removed; riboflavin kinase activity of the C-terminal module; functional form monomer
Sequence (A0A0H2UPY5 1-305): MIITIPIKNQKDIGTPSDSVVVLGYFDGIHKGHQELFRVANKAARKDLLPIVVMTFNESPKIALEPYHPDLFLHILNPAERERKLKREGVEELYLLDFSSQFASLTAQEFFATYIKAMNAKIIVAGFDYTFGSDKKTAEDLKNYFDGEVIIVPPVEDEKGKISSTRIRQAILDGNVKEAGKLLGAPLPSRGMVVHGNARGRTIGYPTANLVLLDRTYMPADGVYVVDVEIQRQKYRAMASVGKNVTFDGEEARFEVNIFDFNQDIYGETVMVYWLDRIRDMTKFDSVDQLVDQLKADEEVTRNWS
Experiment: RFK activity, HPLC of flavins, global Lineweaver-Burk fit
Format: biochemical
Measurement Parameters: read-out: Ki^ADP
Outcome Measure: pKi
For clarity, pKi is expressed as the negative log10 of concentration in mol/L.

(Q) Query: pKi; subject: Nc1ncnc2c1ncn2[C@@H]1O[C@H](COP(=O)(O)OP(=O)(O)O)[C@@H](O)[C@H]1O [ADP, adenosine 5′-diphosphate]
(A) 3.89
